test system: SF-295 CNS; assay: NCI tumour cell line growth inhibition, 48 h
# key: entry, value: TGI
The response must be a number in µM with no trailing unit.

get_value(item= COc1ccc(/C=C2\CC(C)CC3C2=NN(C(C)=O)C3c2ccc(OC)c(OC)c2)cc1OC (centres undefined) , readout=TGI) returns 50.2

So, C=C(Cl)C(Cl)(CBr)CCC(Cl)C(C)C (centres undefined) ? Its TGI was 6.48

Entry `COc1c(-c2ccc3c(c2)OCO3)oc2cc3c(c(OC)c2c1=O)OCO3` — recorded TGI = 61.8

For `N#Cc1c(-c2ccc(Cl)cc2)n([O-])c2ccccc2[n+]1=O` the compound record lists TGI as 30.3

Noted for `COC(=O)[C@@H](C)C[C@H](Cc1ccccc1)NC(=O)c1cccc([C@@H](C[C@H](C(C)C)N(C)C(=O)[C@@H](NC(=O)[C@H]2CCCCN2C)C(C)C)OC(C)=O)n1` : its TGI reads 0.0142

Documented TGI of `CN(C)CCCNc1ccc2nnn3c4ccc([N+](=O)[O-])cc4c(=O)c1c23` : 7.44

====

test system: TK-10 renal; assay: NCI tumour cell line growth inhibition, 48 h
Overview of recorded TGI for various molecules
Give the value in µM but do not write µM after it.

Answered cases to consult:
C=C(Cl)C(Cl)(CBr)CCC(Cl)C(C)C (stereo not given); 3.12
Cn1c([N+](=O)[O-])cnc1/C=C1\Oc2ccc(Cl)cc2C1=O; 2.77
COc1cc2c(cc1Nc1nc(Nc3ccsc3C(N)=O)c3cc[nH]c3n1)N(C(=O)CN(C)C)CCC2; 6.27

The molecule `Clc1ccc(CCN2CCN(CCCc3ccccc3)CC2)cc1Cl` showed TGI equal to 30.1

====

Overview of reported TGI across a group of compounds:
test system: HL-60(TB) leukemia; test: NCI tumour cell line growth inhibition, 48 h
Give the value, in units of µM, as a plain number.

Completed entries (count: 4):
CC(C)(C)OC(=O)N1CC(COS(C)(=O)=O)c2ccc(O)cc21 (stereo not given); 3.98
O=C(/C=C\c1ccc(Cl)c(Cl)c1)c1ccccc1; 29.1
CCOC(=O)C1C(=O)C=C(c2cc(C)ccc2O)CC1c1cccc(Br)c1 (stereo not given); 44.2
CNCc1ccc(C)c(NC(=O)c2ccc(Nc3nc(-c4ccccc4)c4ccccc4n3)cc2)c1; 4.33

For reference, reported TGI for `COc1cccc2c(NNc3ccc(Cl)cc3)c3ccc([N+](=O)[O-])cc3nc12` stands at 28.8

TGI reading for Cc1ccc(S(=O)(=O)NC2(C=O)CCC(C(C)(C)C)CC2)cc1 (stereo not given) : 42.9

Measured TGI of `COc1cc2c(cc1C)NC(=O)/C2=C/c1c(Cl)n(C)c2ccccc12` : 8.94

====

tested on: SF-268 CNS; assay: NCI tumour cell line growth inhibition, 48 h
readout: GI50

Use these answered entries as a reference point.
Cn1c([N+](=O)[O-])cnc1/C=C1\Oc2ccc(Cl)cc2C1=O; 0.339 µM
C=C1C(=O)O[C@H]2[C@H]1CC/C(Cn1cc(CNC(=O)c3cc4ccccc4[nH]3)nn1)=C\CC[C@@]1(C)O[C@@H]21; 7.26 µM
CCOC(=O)c1ccccc1NC(c1ccccc1)c1ccc2cccnc2c1O (configuration not stated); 3.14 µM
Cn1cc(C2=C(c3cn(CCCSC(=N)N)c4ccccc34)C(=O)NC2=O)c2ccccc21; 1.76 µM
Cn1cnc2nc(Cl)nc(Cl)c21; 3.22 µM

Param item: CCCCCCn1c(=N)n(CC(O)COc2cccc(C)c2)c2ccccc21 (configuration not stated) ; param system: SF-268 CNS; output GI50: 3.9 µM

Form field, GI50 with SF-268 CNS, item `COc1cc2c(c(OC)c1OC)-c1c(c3ccc([N+](=O)[O-])cc3c(=O)n1CCCN=[N+]=[N-])C2=O` : 14.4 µM

====

system: DU-145 prostate; experiment: NCI tumour cell line growth inhibition, 48 h
Form field: TGI (one value per entry).
Report the value in µM with no unit label.

Sample `O=C(/C=C\c1ccc(Cl)c(Cl)c1)c1ccccc1` ; TGI observed: 21.9

Documented TGI of C[N+]12C=CC=C1C(N1CCCC1)c1sc(-c3ccc(Cl)cc3)cc12 (stereo not given) : 32.6

# TGI (compound: CCOC(=O)C(Cc1ccc(N(CCCl)CCCl)cc1)NC(=O)C(CC(C)C)NC(C)=O (stereo not given) ) is 4.41

Sample CC[N+]1(C)CCC(O)(/C=C/c2ccccc2)C(C(=O)/C=C/c2ccccc2)C1 (stereo not given) ; TGI observed: 39.1

====

test system: SF-539 CNS; experiment: NCI tumour cell line growth inhibition, 48 h
readout: TGI

COc1ccc(C(=O)CC(Cl)=C(Cl)Cl)cc1; > 100 µM
Cn1c(N)cc(=O)nc1N; > 100 µM
CCCCCCCCCCCCOC1C(C(COC2OC(C(O)CO)C3OC(C)(C)OC23)OC(=O)Nc2ccc([N+](=O)[O-])cc2)OC2OC(C)(C)OC21 (stereo unspecified); 14.7 µM
C[N+](C)(C)CC(=O)N/N=C(\C(=O)Nc1ccc(Cl)cc1)C1C(=O)N(c2ccccc2)N=C1N (stereo unspecified); > 100 µM
C[N+](C)([O-])Cc1cccc(NC(=O)c2ccc(C(=O)Nc3cccc(C[N+](C)(C)[O-])c3)cc2)c1; > 100 µM
NCCN.O=N[O-].O=N[O-].O=N[O-].O=N[O-].[Co+3].[K+]; > 100 µM
Cc1nn(C(=O)CC(=O)Nc2ccccc2Cl)c(C)c1N=Nc1ccccc1Cl; > 100 µM
CSc1nc(Cl)c2c(n1)Sc1ncnn1C2O (stereo unspecified); 15.5 µM
N#Cc1ccccc1C#C/C=C\C#Cc1cnccn1; 46.2 µM
CC(C)Oc1c(O)c2c3c(oc(=O)n3C=CC2c2ccccc2F)c1OC(C)C (stereo unspecified); 52.6 µM

Note to self: TGI of COc1ccc2nccc(C3OC(=O)N4CCC(=O)CC34)c2c1 (stereo unspecified) with SF-539 CNS was > 100 µM

Tested system SF-539 CNS; TGI recorded for O=C1C2=C(Nc3cc([N+](=O)[O-])ccc3N2)OC1c1c[nH]c2ccc(COc3ccccc3)cc12 (stereo unspecified) was > 100 µM

Value sought: TGI, system SF-539 CNS, item `Cn1c(N)c(N=Nc2ccc(S(N)(=O)=O)cc2)c(=O)n(C)c1=O` . Result: > 100 µM

Form field, TGI with SF-539 CNS, item `COc1cc2c(c(OC)c1OC)-c1c(c3ccc([N+](=O)[O-])cc3c(=O)n1CCCN=[N+]=[N-])C2=O` : 43.1 µM

Record `Fc1ccccc1N=c1oc2ccc(Br)cc2cc1-c1nc2ccccc2[nH]1` has SF-539 CNS TGI equal to 4.58 µM

Note to self: TGI of CC1=CC(=O)C[C@]2(C)[C@@H](O)CC(C(C)CO)C[C@@H]12 (stereo partly specified) with SF-539 CNS was > 100 µM

Per the reported SF-539 CNS data, CCO/C=N/C1=C(C#N)C(c2ccc(OC)c(OC)c2)c2c(-c3ccccc3)nn(-c3ccccc3)c2O1 (stereo unspecified) has TGI of 33.7 µM

Record `C[C@H]1C(=O)C2=C[C@H]1CCC(=O)[C@]1(C)CCCC(C)(C)[C@H]1C[C@H]2O` has SF-539 CNS TGI equal to 28.8 µM

Item `C=CCn1c(=O)c(-c2ccccc2)c(O)c2ccccc21` ; assay system SF-539 CNS; TGI reported as > 100 µM

Per the reported SF-539 CNS data, CCCCCC1C2C(=O)NC(=O)C1C(=O)NC2=O (stereo unspecified) has TGI of > 100 µM

Field TGI (SF-539 CNS), entry COc1ccc(/C=C2\CC(C)CC3C2=NN(C(C)=O)C3c2ccc(OC)c(OC)c2)cc1OC (stereo unspecified) : 37.8 µM

====

tested on: T-47D breast; experiment: NCI tumour cell line growth inhibition, 48 h
readout: TGI (µM)
Kindly answer with a numeric value in µM, unit omitted.

Solved cases (4 shown):
CC(C)(C)OC(=O)N1CC(COS(C)(=O)=O)c2ccc(O)cc21 (centres undefined); 11.1
N#Cc1c(-c2ccc(Cl)cc2)n([O-])c2ccccc2[n+]1=O; 25.8
COC(=O)C(I(OS(=O)(=O)c1ccc(C)cc1)c1ccccc1)=P(c1ccccc1)(c1ccccc1)c1ccccc1; 48.2
C[CH2][Ge]1([CH2]C)[CH2]CC2(CCN(CCCN(C)C)C2)C[CH2]1; 3.25

Given item O=C(O)CCCCCNC(=O)CCC(CN(CC(=O)OCc1ccccc1)CC(=O)OCc1ccccc1)N(CC(=O)OCc1ccccc1)CC(=O)OCc1ccccc1 (centres undefined) , the value recorded as its TGI is 36.9

====

Quick reference for TGI among some molecules
system: HOP-18 NSCLC; assay: NCI tumour cell line growth inhibition, 48 h

O=C(CCc1nnc2s/c(=C\c3ccc(Cl)cc3Cl)c(=O)n12)Nc1cc(Cl)c(Cl)cc1Cl; > 100 µM
COCC(O)CN1C(N)=NC(O)C1O (stereo not given); > 100 µM
CC(=O)NC(Cc1ccccc1)C(=S)N1CCCC1 (stereo not given); > 100 µM
O=C1[C@@H]2C3C=CC([C@H]4C(=O)N(CO)C(=O)[C@@H]34)[C@@H]2C(=O)N1CO; 86.4 µM
CC(=O)OC12CCCCC1C1(CCCC1)NC2=O (stereo not given); > 100 µM

Item `C[CH2][Ge]1([CH2]C)[CH2]CC2(CCN(CCCN(C)C)C2)C[CH2]1` was tested on HOP-18 NSCLC; the reported TGI is 8.25 µM

The value of TGI recorded for `Cc1nn(C(=O)CC(=O)Nc2ccccc2Cl)c(C)c1N=Nc1ccccc1Cl` when tested on HOP-18 NSCLC reads > 100 µM

// molecule COc1ccc(C2Oc3cc(OC)c(O)cc3[C@@H]2C)cc1 (stereo not given in full) , assay HOP-18 NSCLC, TGI value: > 100 µM

The observed TGI for O=C1OC2C(O)COC2(OCc2c[nH]c3ccccc23)C1O (stereo not given) (tested in a mixture with another compound) when tested with HOP-18 NSCLC stands at > 100 µM

# `CCc1cccc(C(C)C)c1C1C(=O)C(=O)N(c2nc3ccccc3s2)C(=O)C1=O` with HOP-18 NSCLC: TGI is > 100 µM
